Attribution: PubChem BioAssay AID248

- Tested on: L1210 leukemia ip in BDF1 mice, survival T/C
- Assay Name: NCI In Vivo Anticancer Drug Screen. Data for tumor model L1210 Leukemia (intraperitoneal) in B6D2F1 (BDF1) mice
- Experimental Parameters: endpoint: mean survival time; dose: 100.0 mg/kg/injection; schedule: Q01DX009 (ip); vehicle: Klucel (hydroxypropylcellulose) (HPC); higher = longer survival
Inconclusive results and toxic doses are left out.
Attribute Measured: T/C

Value of T/C reported for the compound `Cc1cc(C)c(N(C)C(=O)CCC(=O)O)c(C)c1Br` is 93 % of control

Value of T/C reported for the compound `O=c1[nH]cnc2ccccc12` is 107 % of control

Value of T/C reported for the compound `CSc1ccc(/C=C/c2ccc([N+](=O)[O-])cc2)cc1` is 97 % of control

Value of T/C reported for the compound COc1cc2c(cc1OC)C(CNC(=O)/C=C/c1ccccc1)C2 (centres undefined) is 106 % of control

Value of T/C reported for the compound `CCOC(=O)c1c2c(=O)n(C)c(=O)n(C)c2nc2c1c(=O)n(C)c(=O)n2C` is 93 % of control

Value of T/C reported for the compound `COc1ccc(/C=N/NC(=O)c2ccccc2O)cc1` is 98 % of control

Value of T/C reported for the compound `COC(=O)c1ccc([N+](=O)[O-])c(O)c1` is 96 % of control

Value of T/C reported for the compound `CC(=O)N(C)c1ccc(NC(=O)c2c(Br)c(Br)c(Br)c(Br)c2C(=O)O)cc1` is 98 % of control

Value of T/C reported for the compound `O=C(NC(=S)Nc1cccc(Cl)c1)c1ccccc1F` is 87 % of control

Value of T/C reported for the compound `Clc1ccc(C2SCCS2)c(Cl)c1` is 105 % of control

Value of T/C reported for the compound `CCNc1nc(C)c2nc(C(=O)OCC)c(=O)[nH]c2n1` is 95 % of control

Value of T/C reported for the compound `FC(F)(F)c1cccc(NC(=S)NCc2ccco2)c1` is 90 % of control

Value of T/C reported for the compound `Fc1ccc(/C=C2/c3cc(Cl)ccc3-c3c(Cl)cc(Cl)cc32)cc1` is 98 % of control

Value of T/C reported for the compound `CN(C)C=NC1c2ccccc2CCc2ccccc21` is 98 % of control

Value of T/C reported for the compound `COC(=O)C/C(=N\NC(=O)c1ccccc1)C(=O)OC` is 93 % of control

Value of T/C reported for the compound `COc1cc(N(CCCl)CCCl)ccc1CN1CCCN(Cc2ccc(N(CCCl)CCCl)cc2OC)C1c1ccccc1O` is 109 % of control

Value of T/C reported for the compound `CCOC(=O)c1cc(C)n(-c2ccc(C(=O)O)cc2)c1C` is 95 % of control

Value of T/C reported for the compound `O=Cc1ccc(N(c2ccccc2)c2ccccc2)cc1` is 102 % of control

Value of T/C reported for the compound `CC(=O)c1cccc(NC(=O)Oc2cc(=O)oc3ccccc23)c1` is 101 % of control

Value of T/C reported for the compound `Cc1cc(N(c2c(Cl)c(Cl)c(NS(=O)(=O)c3ccccc3)c(Cl)c2Cl)S(=O)(=O)c2ccccc2)cc(C)c1N` is 100 % of control

Value of T/C reported for the compound `CCCCN(C)N=Nc1ccc(Cl)cc1C(N)=O` is 110 % of control

Value of T/C reported for the compound `CCCCCCCCCCCCCCCC[N+]1(Cc2ccccc2)CCOCC1` is 99 % of control

Value of T/C reported for the compound CC(Cl)(/N=N\C(C)(Cl)c1ccc(Cl)cc1)c1ccc(Cl)cc1 (centres undefined) is 92 % of control

Value of T/C reported for the compound `CCOC(=O)C(C)(C)CCl` is 100 % of control
